# protocol-text: log P by HPLC on reversed-phase column (C 18), EEC Directive 79/831 Annex V.A8
# Type: physicochemical
# condition-set: 40° C., 0.1% aqueous formic acid and acetonitrile
Class (required): determined from logP; valid ranges are lower band: < 3; central band: ≥ 3 and < 4; upper band: ≥ 4

Cn1nc(C(F)F)c(C(=S)N2CCCC2C23CC4CC(CC(C4)C2)C3)c1F (stereo not drawn) | upper band

Please indicate the class for Cn1nc(C(F)F)c(C(=O)N2CCCCC2CCOCC2CC2)c1F (stereo not drawn) based on its logP.
lower band

Please indicate the class for COCCCC1CCCCN1C(=O)c1c(C(F)F)nn(C)c1Cl (stereo not drawn) based on its logP.
lower band

Please indicate the class for Cn1nc(C(F)F)c(C(=O)N2CCCC2C23CC4CC(CC(C4)C2)C3)c1Cl (stereo not drawn) based on its logP.
upper band
